Assay: altered dexamethasone sensitivity, NF-kB reporter, cell-based, luciferase, IL-1B stimulus (AID 624486)
Details: IL-1B + dexamethasone, luminescence; measured here: IL-1B alone, no Dex
Recorded z-score by entry
quantity kind: z-score

> print(dat)
                                 mol.smiles  recorded.value
1  NC(=O)c1sc(-n2cnc3ccccc32)cc1OCc1ccccc1Br           0.185
2  COc1cc2ncn(-c3cc(OCc4ccccc4Cl)c(C(N)=O)s3)c2cc1OC           0.395
3  COc1cc2ncn(-c3cc(OCCc4ccccc4)c(C(N)=O)s3)c2cc1OC            0.89
4  NC(=O)c1cccc(Nc2nccc(Nc3cccc4[nH]ncc34)n2)c1           0.725
5     COc1cccc(Nc2nccc(-c3cnn4ncccc34)n2)c1           -9.21
6  O=C(Nc1ccc(Oc2ccc3nc(NC(=O)c4ccco4)[nH]c3c2)cc1)Nc1cc(C(F)(F)F)ccc1F           -2.38
7  COc1cccc(-n2ncc3c(N/N=C/c4ccc(S(C)(=O)=O)cc4)ncnc32)c1           0.965
8  CCS(=O)(=O)c1ccc(OC)c(Nc2ncc(-c3cccc(C(C)=O)c3)o2)c1           0.415
9  NC(=O)Cc1ccccc1Oc1nccc(-c2c(-c3ccc(F)cc3)ncn2C2CCNCC2)n1           0.475
